Listed here: items and their measured %Inh.
# Test system: HUNK;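 note: KINOMEscan kinase panel screen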
# setup_conditions: concentration: 1 μM, replicates: in singlicate; n = 1
Lab book: enter the figure in %, no units written.

Below, 6 molecules whose answers are already recorded.
> print(dat)
                                        smi  measure.unit  recorded.result
1           Nc1cccc(-c2ccc3c(N)n[nH]c3c2)c1             %               23
2  Cc1ccc(C)c(NC(=O)Nc2ccc(C)c(-c3ccc(C(=O)Nc4ccncc4)cc3)c2)c1             %                0
3  CC(C)c1nc(-c2cccc(NS(=O)(=O)c3c(F)cccc3F)c2)c(-c2ccnc(Nc3ccc(N4CCOCC4)nc3)n2)s1.Cl             %                0
4  CN(c1ccc2c(c1)nc(NCc1ccccc1)n2C)c1ccnc(Nc2ccc(CS(C)(=O)=O)cc2)n1.Cl             %                0
5    O=C(Nc1n[nH]c2nc(-c3ccccc3)ccc12)C1CC1             %                0
6  Cc1nn2c(=O)cc(N3CCO[C@H](C)C3)nc2n1Cc1cccc(Cl)c1Cl             %                0

# molecule `Cc1cccc(Nc2nc(N[C@H]3CCCC[C@H]3N)ncc2C(N)=O)c1.Cl` ; its %Inh = 0

# molecule `COC(=O)Nc1nc2ccc(Oc3ccc(CC(=O)Nc4cc(C(F)(F)F)ccc4F)cc3)cc2[nH]1` ; its %Inh = 15
